Reference for the values: patent US20100210617A1

Assign IC50 to each entry below.
# STUDY TARGET: protein kinase B (PKB), fusion protein PKB-PIF (Homo sapiens, UniProt P31751)
# Sequence (P31751 with tags, fused parts or gaps limits assumed): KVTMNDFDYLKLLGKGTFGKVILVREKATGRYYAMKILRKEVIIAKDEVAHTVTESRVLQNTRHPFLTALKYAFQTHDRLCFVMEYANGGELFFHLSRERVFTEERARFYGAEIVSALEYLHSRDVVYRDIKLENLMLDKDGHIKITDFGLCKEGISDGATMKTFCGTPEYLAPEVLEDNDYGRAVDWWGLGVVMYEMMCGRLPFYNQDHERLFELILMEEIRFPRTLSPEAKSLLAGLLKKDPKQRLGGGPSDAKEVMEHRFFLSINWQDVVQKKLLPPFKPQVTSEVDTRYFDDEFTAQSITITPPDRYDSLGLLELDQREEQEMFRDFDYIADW
# ASSAY OVERVIEW: Measurement of PKB kinase inhibitory activity (IC50)
# TEST CONDITIONS: 0.6 nM enzyme, 30 μM ATP/γ33P-ATP, 25 μM AKTide-2T substrate, 20 minutes; read-out: IC50, concentration required to inhibit 50% of the PKB activity
Where a name gives a salt, the structure may show the parent alone.

**Q:** API: value(readout=IC50, system=protein kinase B (PKB), fusion protein PKB-PIF (Homo sapiens, UniProt P31751)) for record Cc1n[nH]cc1-c1ccc(C(O)(CN)c2ccc(Cl)cc2)cc1 (stereo not shown) [Example 79]
**A:** < 100 nM

**Q:** Consider next the compound NCCC(c1ccc(-c2cn[nH]c2)cc1)c1ccc(Cl)c(F)c1 (stereo not shown) [Example 1] in the same way.
**A:** < 100 nM

**Q:** Consider next the compound NCC[C@@](O)(c1ccc(Cl)cc1)c1ccc(-c2cn[nH]c2)cc1 [Example 99A] in the same way.
**A:** < 100 nM

**Q:** Consider next the compound CN(C)c1cccc(C2(c3ccc(-c4cn[nH]c4)cc3)CCNCC2)c1 [Example 89] in the same way.
**A:** < 1000 nM

**Q:** Consider next the compound NCCC(O)(c1ccc(Cl)cc1)c1ccc(-c2cn[nH]c2)cc1 (racemic) [Example 92] in the same way.
**A:** < 100 nM

**Q:** Consider next the compound NCCC(O)(c1ccc(Cl)cc1)c1ccc(-c2cn[nH]c2)cc1F (stereo not shown) [Example 94] in the same way.
**A:** < 100 nM

**Q:** Consider next the compound CCc1n[nH]cc1-c1ccc(C(O)(CN)c2ccc(Cl)cc2)cc1 (stereo not shown) [Example 80] in the same way.
**A:** < 100 nM

**Q:** Consider next the compound Clc1ccc(C2(c3ccc(-c4cn[nH]c4)cc3)CCNC2)cc1 (stereo not shown) [Example 81, formate] in the same way.
**A:** < 1000 nM

**Q:** Consider next the compound COc1ccc(C2(c3ccc(-c4cn[nH]c4)cc3)CCNCC2)cn1 [Example 90] in the same way.
**A:** < 1000 nM

**Q:** Consider next the compound NCCC(O)(c1ccc(-c2cn[nH]c2)cc1)c1ccc(Cl)c(F)c1 (stereo not shown) [Example 95] in the same way.
**A:** < 100 nM

**Q:** Consider next the compound COc1ccc(C2(c3ccc(-c4cn[nH]c4)cc3)CNC2)cc1 [Example 82, formate] in the same way.
**A:** < 1000 nM

**Q:** Consider next the compound c1cc(C2(c3ccc4c(c3)OCCO4)CCNCC2)ccc1-c1cn[nH]c1 [Example 83] in the same way.
**A:** < 100 nM

**Q:** Consider next the compound CCc1[nH]ncc1-c1ccc(C2(c3ccc(Cl)cc3)CCNCC2)cc1 [Example 87] in the same way.
**A:** < 1000 nM
